System: A2780cisR
test_description: cells
run_conditions: Homo sapiens
pIC50: −log10 of the molar value.

smiles_string	pIC50
CCNNC(=O)c1ccc(CN(CC(=O)NCc2ccccc2)C(=O)c2ccc(N(C)C)cc2)cc1	4.80

----------
Test system: CAL-27
test_description: Cytotoxicity against human CAL-27 cells assessed as cell viability incubated for 72 hrs by MTS assay
Type: functional, cell-based
run_conditions: CAL-27, 72 h
pIC50: −log10 of the molar value.

smiles_string	pIC50
Nc1cc(F)ccc1NC(=O)/C=C/c1cnn(C/C=C/c2ccccc2)c1	4.37

----------
Test system: CAL-27
test_description: cells
run_conditions: Homo sapiens, CAL-27, 72 h

smiles_string	test_target	measurement_qualifier	IC50 [µM]
CN(C)c1ccc(C(=O)N(CC(=O)NCc2ccccc2)Cc2ccc(-c3nnc(C(F)F)o3)cc2)cc1	CAL-27	>	100
CN(C)c1ccc(C(=O)N(CCCCCC(=O)O)CC(=O)NCc2ccccc2)cc1	CAL-27	>	100
CSc1ccccc1NC(=O)CCCCCN(CC(=O)NCc1ccccc1)C(=O)c1ccc(N(C)C)cc1	CAL-27	=	79.4
CN(C)c1ccc(C(=O)N(CCCCCC(=O)NCCSSCCNC(=O)CCCCCN(CC(=O)NCc2ccccc2)C(=O)c2ccc(N(C)C)cc2)CC(=O)NCc2ccccc2)cc1	CAL-27	=	98.7
CC(=O)SCC(=O)Nc1ccc(CN(CC(=O)NCc2ccccc2)C(=O)c2ccc(N(C)C)cc2)cc1	CAL-27	>	100
CSc1ccccc1C(=O)NCCCCCCCN(CC(=O)NCc1ccccc1)C(=O)c1ccc(N(C)C)cc1	CAL-27	=	70.9
CSc1ccccc1C(=O)NCCCCCN(CC(=O)NCc1ccccc1)C(=O)c1ccc(N(C)C)cc1	CAL-27	=	63.7
CC(=O)SCC(=O)NCCCCCCN(CC(=O)NCc1ccccc1)C(=O)c1ccc(N(C)C)cc1	CAL-27	=	33.4

----------
test_target: Histone deacetylase 3 (Homo sapiens, UniProt O15379)
Sequence (O15379 whole entry): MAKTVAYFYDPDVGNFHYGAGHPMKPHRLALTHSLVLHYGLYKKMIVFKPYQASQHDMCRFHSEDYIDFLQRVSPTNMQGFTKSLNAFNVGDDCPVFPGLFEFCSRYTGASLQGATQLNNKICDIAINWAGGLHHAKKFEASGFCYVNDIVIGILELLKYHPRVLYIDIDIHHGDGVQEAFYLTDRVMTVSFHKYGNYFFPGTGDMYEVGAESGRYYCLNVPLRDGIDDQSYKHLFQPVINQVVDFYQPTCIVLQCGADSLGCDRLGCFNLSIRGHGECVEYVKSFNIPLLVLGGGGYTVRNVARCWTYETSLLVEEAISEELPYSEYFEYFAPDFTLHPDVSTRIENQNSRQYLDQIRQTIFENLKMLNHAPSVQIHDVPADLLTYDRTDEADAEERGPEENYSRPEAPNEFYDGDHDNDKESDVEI
pIC50: −log10 of the molar value.
A collection of molecules and their measured pIC50
property: pIC50

smiles_string	result
CSc1ccccc1C(=O)NCCCCCCCN(CC(=O)NCc1ccccc1)C(=O)c1ccc(N(C)C)cc1	< 5.00
CSc1ccccc1C(=O)NCCCCCCN(CC(=O)NCc1ccccc1)C(=O)c1ccc(N(C)C)cc1	< 5.00
CSc1ccccc1C(=O)Nc1ccc(CN(CC(=O)NCc2ccccc2)C(=O)c2ccc(N(C)C)cc2)cc1	< 5.00

----------
test_target: Histone deacetylase 1 (Homo sapiens)
Sequence (Q13547 whole entry): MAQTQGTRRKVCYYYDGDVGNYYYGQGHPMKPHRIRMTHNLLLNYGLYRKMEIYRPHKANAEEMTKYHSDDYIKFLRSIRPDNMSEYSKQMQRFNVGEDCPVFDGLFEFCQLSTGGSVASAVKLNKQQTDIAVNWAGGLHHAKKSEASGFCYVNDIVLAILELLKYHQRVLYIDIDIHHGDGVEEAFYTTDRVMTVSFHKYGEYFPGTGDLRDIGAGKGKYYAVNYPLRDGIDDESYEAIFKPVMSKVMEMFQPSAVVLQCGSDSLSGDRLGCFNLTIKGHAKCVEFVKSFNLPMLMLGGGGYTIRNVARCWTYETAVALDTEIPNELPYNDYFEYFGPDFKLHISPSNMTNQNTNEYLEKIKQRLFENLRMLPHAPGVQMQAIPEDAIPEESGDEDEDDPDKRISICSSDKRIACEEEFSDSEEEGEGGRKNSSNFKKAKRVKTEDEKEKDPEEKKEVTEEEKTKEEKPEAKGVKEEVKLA
test_description: Inhibition of human HDAC1 using ZMAL(Z-Lys(Ac)-AMC as substrate preincubated for 60 mins followed by substrate addition and measured after 90 mins by microplate reader analysis
pIC50: −log10 of the molar value.
# pIC50 values compiled below
property: pIC50

smiles_string	test_target	property	result
CSc1ccccc1C(=O)NCCCCCCN(CC(=O)NCc1ccccc1)C(=O)c1ccc(N(C)C)cc1	Histone deacetylase 1 (Homo sapiens)	pIC50	< 5.00
CN(C)c1ccc(C(=O)N(CC(=O)NCc2ccccc2)Cc2ccc(C(=O)NCCSSCCNC(=O)c3ccc(CN(CC(=O)NCc4ccccc4)C(=O)c4ccc(N(C)C)cc4)cc3)cc2)cc1	Histone deacetylase 1 (Homo sapiens)	pIC50	5.34
CN(C)c1ccc(C(=O)N(CC(=O)NCc2ccccc2)Cc2ccc(-c3nnc(C(F)F)o3)cc2)cc1	Histone deacetylase 1 (Homo sapiens)	pIC50	< 5.00
CN(C)c1ccc(C(=O)N(CCCCCC(=O)NCCSSCCNC(=O)CCCCCN(CC(=O)NCc2ccccc2)C(=O)c2ccc(N(C)C)cc2)CC(=O)NCc2ccccc2)cc1	Histone deacetylase 1 (Homo sapiens)	pIC50	5.15
CN(C)c1ccc(C(=O)N(CCCCCC(=O)O)CC(=O)NCc2ccccc2)cc1	Histone deacetylase 1 (Homo sapiens)	pIC50	< 5.00
CSc1ccccc1C(=O)Nc1ccc(CN(CC(=O)NCc2ccccc2)C(=O)c2ccc(N(C)C)cc2)cc1	Histone deacetylase 1 (Homo sapiens)	pIC50	< 5.00
CNC(=O)CCCCCN(CC(=O)NCc1ccccc1)C(=O)c1ccc(N(C)C)cc1	Histone deacetylase 1 (Homo sapiens)	pIC50	< 5.00

----------
test_description: cells
run_conditions: Homo sapiens, Cal27CisR, 72 h
Entries annotated with measured IC50

smiles_string	IC50
CSc1ccccc1NC(=O)CCCCCN(CC(=O)NCc1ccccc1)C(=O)c1ccc(N(C)C)cc1	61.3 µM
CN(C)c1ccc(C(=O)N(CC(=O)NCc2ccccc2)Cc2ccc(-c3nnc(C(F)F)o3)cc2)cc1	> 100 µM
CN(C)c1ccc(C(=O)N(CCCCCCNC(=O)c2ccccc2O)CC(=O)NCc2ccccc2)cc1	> 100 µM
CNC(=O)CCCCCN(CC(=O)NCc1ccccc1)C(=O)c1ccc(N(C)C)cc1	> 100 µM
CSc1ccccc1C(=O)NCCCCCCN(CC(=O)NCc1ccccc1)C(=O)c1ccc(N(C)C)cc1	65.6 µM
CN(C)c1ccc(C(=O)N(CC(=O)NCc2ccccc2)Cc2ccc(C(=O)O)cc2)cc1	> 100 µM
CC(=O)SCC(=O)NCCCCCCN(CC(=O)NCc1ccccc1)C(=O)c1ccc(N(C)C)cc1	28.8 µM
CN(C)c1ccc(C(=O)N(CC(=O)NCc2ccccc2)Cc2ccc(C(=O)NCCSSCCNC(=O)c3ccc(CN(CC(=O)NCc4ccccc4)C(=O)c4ccc(N(C)C)cc4)cc3)cc2)cc1	> 100 µM
CN(C)c1ccc(C(=O)N(CCCCCC(=O)NCCSSCCNC(=O)CCCCCN(CC(=O)NCc2ccccc2)C(=O)c2ccc(N(C)C)cc2)CC(=O)NCc2ccccc2)cc1	> 100 µM
CCNNC(=O)c1ccc(CN(CC(=O)NCc2ccccc2)C(=O)c2ccc(N(C)C)cc2)cc1	2.23 µM
CN(C)c1ccc(C(=O)N(CC(=O)NCc2ccccc2)Cc2ccc(-c3nnc(C(F)(F)F)o3)cc2)cc1	> 100 µM
CSc1ccccc1C(=O)Nc1ccc(CN(CC(=O)NCc2ccccc2)C(=O)c2ccc(N(C)C)cc2)cc1	> 100 µM
CSc1ccccc1C(=O)NCCCCCN(CC(=O)NCc1ccccc1)C(=O)c1ccc(N(C)C)cc1	55 µM
CN(C)c1ccc(C(=O)N(CCCCCC(=O)O)CC(=O)NCc2ccccc2)cc1	> 100 µM
CSc1ccccc1C(=O)NCCCCCCCN(CC(=O)NCc1ccccc1)C(=O)c1ccc(N(C)C)cc1	> 100 µM
CC(=O)SCC(=O)Nc1ccc(CN(CC(=O)NCc2ccccc2)C(=O)c2ccc(N(C)C)cc2)cc1	> 100 µM

----------
The compounds listed here are annotated with their pIC50.
System: CAL-27
test_description: cells
run_conditions: Homo sapiens, CAL-27, 72 h
pIC50: −log10 of the molar value.

smiles_string	measurement_qualifier	pIC50
CN(C)c1ccc(C(=O)N(CC(=O)NCc2ccccc2)Cc2ccc(C(=O)O)cc2)cc1	=	4.13
CCNNC(=O)c1ccc(CN(CC(=O)NCc2ccccc2)C(=O)c2ccc(N(C)C)cc2)cc1	=	5.83
CN(C)c1ccc(C(=O)N(CC(=O)NCc2ccccc2)Cc2ccc(C(=O)NCCSSCCNC(=O)c3ccc(CN(CC(=O)NCc4ccccc4)C(=O)c4ccc(N(C)C)cc4)cc3)cc2)cc1	<	4.00
CN(C)c1ccc(C(=O)N(CC(=O)NCc2ccccc2)Cc2ccc(-c3nnc(C(F)(F)F)o3)cc2)cc1	<	4.00
CSc1ccccc1C(=O)NCCCCCCN(CC(=O)NCc1ccccc1)C(=O)c1ccc(N(C)C)cc1	=	4.16
CSc1ccccc1C(=O)Nc1ccc(CN(CC(=O)NCc2ccccc2)C(=O)c2ccc(N(C)C)cc2)cc1	<	4.00
CNC(=O)CCCCCN(CC(=O)NCc1ccccc1)C(=O)c1ccc(N(C)C)cc1	<	4.00

----------
test_description: Metabolic stability in human liver microsome assessed as half life
Type: ADME, microsomes
run_conditions: liver microsomes

smiles_string	half-life [min]
CN(C)c1ccc(C(=O)N(CC(=O)NCc2ccccc2)Cc2ccc(C(=O)Nc3ccccc3N)cc2)cc1	17.5
